Tested on: NCI/ADR-RES ovarian
Assay: NCI-60 one-dose screen, 48 h
Settings: 10 µM
The panel holds about 83,000 compounds, 20% with a hit somewhere; the sample as a whole holds those more often. Calls of active or inactive are those of the source. How the source made its calls: active means growth percent below 10; inactive means the rest.
Outcomes: active, inactive

molecule: COc1ccc2c(c1)C(=O)/C(=C/c1cccc(OCC(=O)c3ccc([N+](=O)[O-])cc3)c1)CO2
assigned_label: active
--
molecule: CC(C)N(CCOc1ccc(-c2nc3sccn3c2-c2ccnc(S(C)(=O)=O)n2)cc1)C(C)C
assigned_label: inactive
--
molecule: COc1cc(-c2nn(-c3cccc(NC(=O)NCCNC(=O)c4ccccc4)c3)cc2-c2ccncc2)ccc1Cl
assigned_label: inactive
--
molecule: O=C(Nc1cc(Cl)cc2c1-c1ccc(Cl)cc1C2O)C(Cl)Cl (stereo not drawn)
assigned_label: inactive
--
molecule: Cc1ccc(C(C)C)c(O)c1NC(=O)OC(C)C
assigned_label: inactive
--
molecule: CC(C)N(CCOc1cccc(-c2nc3sccn3c2-c2ccnc(S(C)(=O)=O)n2)c1)C(C)C
assigned_label: inactive
--
molecule: O=C1/C=C/[C@@H](O)[C@@H]2C[C@@H](O)C[C@H]2/C=C/CCC[C@H](CCc2ccc(C(F)(F)F)cc2)O1
assigned_label: active
--
molecule: Cc1c(Cl)cccc1NC(=O)CCCl
assigned_label: inactive
--
molecule: N#CC1=CC2CN(Cc3ccccc3)C1C1C(=O)N(c3ccccc3)C(=O)C21 (stereo not drawn)
assigned_label: inactive
--
molecule: O=C(COc1cccc(/C=C2\CSc3ccccc3C2=O)c1)c1ccc(Cl)cc1
assigned_label: active
--
molecule: Cc1nc2n(c(=O)c1CCN1CCC(c3noc4cc(F)ccc34)CC1)CCC[C@@H]2O
assigned_label: inactive
--
molecule: CN1CCN(CCCn2c(=O)c3sc4ncccc4c3n3nnc(-c4ccccc4)c23)CC1
assigned_label: inactive
--
molecule: CCC(CC)n1c(C)cc(=O)n1C(CC)CC
assigned_label: inactive
--
molecule: Nc1nc(Cn2c(-c3nonc3N)nc3ccccc32)nc(N2CCCCC2)n1
assigned_label: inactive
--
molecule: CC(C)c1cc(N=O)cc(C(C)C)c1O
assigned_label: inactive
--
molecule: COc1ccc(-c2nn(-c3cccc(Cl)c3)cc2-c2cc(-c3ccccc3)[nH]c(=O)c2C#N)cc1
assigned_label: inactive
--
molecule: Cc1cc(CCNC=O)c(C)c2c1sc1ccccc12
assigned_label: inactive
--
molecule: CC(=O)N[C@H](C(=O)N[C@@H](CCCNC(=N)N)C(=O)N[C@@H](CCCCN)C(=O)N[C@@H](CCCNC(=N)N)C(=O)N[C@]1(C)CCC/C=C\CCC[C@@](C)(C(=O)N[C@@H](CC(C)C)C(=O)N[C@@H](CC(C)C)C(=O)N[C@@H](CCC(N)=O)C(=O)N[C@@H](CCC(=O)O)C(=O)N[C@@H](CCCNC(=N)N)C(=O)N[C@@H](CCC(=O)O)C(=O)N[C@@H](CC(C)C)C(=O)N[C@H](C(=O)N[C@@H](CCC(=O)O)C(N)=O)C(C)C)NC(=O)[C@H](CCCNC(=N)N)NC(=O)[C@H](CC(C)C)NC1=O)C(C)C
assigned_label: inactive
--
molecule: O=C(O)c1cn(C2CC2)c2cc(N3CCN(C(=O)c4cc(-c5ccc(Cl)cc5)nc5ccccc45)CC3)c(F)cc2c1=O
assigned_label: inactive
--
molecule: O=S(=O)(Oc1ccc(-c2ccc3sccc3c2)cc1)c1ccccc1
assigned_label: inactive
--
molecule: COc1cc2cc(Oc3ccc(NC(=O)c4ccccc4)cc3)c(C)nc2cc1OC
assigned_label: inactive
--
molecule: Cc1c[nH]c(=O)n(Cc2nnc(CCC(=O)c3nc4ccccc4[nH]3)o2)c1=O
assigned_label: inactive
--
molecule: COc1cc2cc(Oc3ccc(NC(=O)c4cccc(C(F)(F)F)c4)cc3)c(C)nc2cc1OC
assigned_label: inactive
--
molecule: CC(C)(C)OC(=O)N1CCc2c(sc3ncnc(N/N=C/c4ccccc4Br)c23)C1
assigned_label: inactive
--
molecule: Nc1c(Br)cc(Br)c2c1[nH]c(=O)c1ccccc12
assigned_label: inactive
--
molecule: Clc1ccc(C2=NN=C3C(Cc4ccccc4)=Nc4ccccc4N3C2)cc1
assigned_label: inactive
--
molecule: CCC1NC(=O)c2cc(S(N)(=O)=O)c(Cl)cc2N1 (stereo not drawn)
assigned_label: inactive
--
molecule: c1ccc(/C(=N\Nc2ccc3ccccc3n2)c2ccccn2)cc1
assigned_label: inactive
--
molecule: c1cnc2[nH]cc(-c3nc(-c4ccsc4)cs3)c2c1
assigned_label: inactive
--
molecule: COc1ccc([C@H]2[C@H](C(=O)Nc3cccnc3)c3ccccc3C(=O)N2c2ccccc2)cc1
assigned_label: inactive
--
molecule: CNC(=O)c1c(I)c(NC(C)=O)c(I)c(C(=O)O)c1I
assigned_label: inactive
--
molecule: O=C(/C=C/c1cccc(B(O)O)c1)c1cccc(B(O)O)c1
assigned_label: active
--
molecule: Cc1cc(O)ccc1C1=NN(c2ccc(S(C)(=O)=O)cc2)C(=O)CC1
assigned_label: inactive
--
molecule: CCCCCCCCCCCC[n+]1c(C)cc(N)c2ccccc21
assigned_label: inactive
--
molecule: Cc1nn(-c2ccc(-c3ccc(OC(F)(F)F)cc3)cc2)c2nc(Cc3ccccc3)nc(N)c12
assigned_label: inactive
--
molecule: COc1cc(C2C(C#N)=C(N)Oc3cc(O)ccc32)cc(OC)c1OC (stereo not drawn)
assigned_label: inactive
--
molecule: O=C(CSc1nnc(-c2ccc(Cl)cc2)o1)Nc1ccc(C(=O)/C=C/c2ccc(Cl)cc2)cc1
assigned_label: inactive
--
molecule: COC1=CC(=O)OC(c2ccc(OC)cc2)C1 (stereo not drawn)
assigned_label: inactive
